- test target: UniProt P29275
- Sequence (P29275 whole entry): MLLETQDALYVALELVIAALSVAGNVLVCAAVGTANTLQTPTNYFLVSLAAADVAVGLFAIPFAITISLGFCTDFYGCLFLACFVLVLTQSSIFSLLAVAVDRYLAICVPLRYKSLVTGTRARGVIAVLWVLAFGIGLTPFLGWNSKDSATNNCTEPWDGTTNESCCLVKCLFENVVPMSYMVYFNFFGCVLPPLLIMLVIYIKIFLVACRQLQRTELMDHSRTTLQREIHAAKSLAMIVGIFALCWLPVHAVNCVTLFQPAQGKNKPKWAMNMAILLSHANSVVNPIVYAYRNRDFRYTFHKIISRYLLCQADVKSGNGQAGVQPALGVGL
- protocol: Cellular reporter gene (CRE-luciferase) A2b receptor antagonist assay in recombinant CHO-K1 cells stimulated with NECA
- run parameters: recombinant CHO-K1 cell line, co-incubation with EC50 concentration of NECA, 3 hours, in some cases means, rounded to two significant digits
Please assign false (0) whenever IC50 is at or above 70 nM, and true (1) whenever it is below.

>>> class_assignment("CCn1c(=O)c2c(C)c(C(=O)N3CCC(O)C(O)C3)sc2n(CCC(F)(F)F)c1=O (racemic) [Example 119]")
"false (0)"
>>> class_assignment("CCn1c(=O)c2c(C)c(C(=O)N3CCC(O)CC3)sc2n(CCC=C(F)F)c1=O")
"false (0)"
>>> class_assignment("CCn1c(=O)c2c(C(F)(F)F)c(C(=O)N3CCC(O)(CO)CC3)sc2n(CCC(F)(F)F)c1=O")
"true (1)"
>>> class_assignment("O=C(c1sc2c(c1C(F)(F)F)c(=O)n(CCc1ccccc1)c(=O)n2CCC(F)(F)F)N1CCC(O)CC1")
"true (1)"
>>> class_assignment("Cc1c(C(=O)N2CCC(O)CC2)sc2c1c(=O)n(CC(C)(O)c1ccccc1)c(=O)n2CCC(F)(F)F (single isomer, unassigned) [Example 132]")
"true (1)"
>>> class_assignment("CCCn1c(=O)c2c(C(F)F)c(C(=O)N3CCC(C)(O)CC3)sc2n(CCOC(F)(F)F)c1=O")
"true (1)"
